Assay: Half life in po dosed mouse
Format: ADME, organism-based
Conditions: in vivo
observed-property: half-life

Suppose we examine the compound CC(C)Oc1cc(N2CCNCC2)ccc1-c1c(C(N)=O)[nH]c2cc(F)c(F)cc12 ; what half-life value has been reported?
4.5 h

----------
Experiment: Intrinsic clearance in human
Assay type: ADME
observed-property: CLint scaled

INSERT INTO measurements (structure_smiles_string, result) VALUES
  ('CC(C)Oc1cc(N2CCNCC2)ccc1-c1c(C(N)=O)[nH]c2cc(F)c(F)cc12', '< 1 mL/min/kg');

// CLint scaled lookup, key: CC(C)Oc1cc(N2CCNCC2)ccc1-c1c(C(N)=O)[nH]c2cc(F)c(Cl)cc12
< 1 mL/min/kg
